# system.name: Transforming acidic coiled-coil-containing protein 3 (Homo sapiens)
# procedure.summary: ARNT/TACC3 binding disruptors, dose response, biochemical, AlphaScreen, dry powder (AID 720563)
# condition.summary: AlphaScreen His-ARNT PAS-B/GST-TACC3 binding, luminescence
Some molecules, each annotated with its measured AC50.

Query: I am curious: what AC50 value has been reported for CC1CCN(S(=O)(=O)c2ccc(C(=O)Nc3nnc(-c4ccno4)o3)cc2)CC1 ?
Result: 11.4 µM

Query: For CC(C)C(=O)NC(c1ccco1)c1cc(Cl)c2cccnc2c1O (stereo not given) then?
Result: 5.1 µM

Query: For CSc1ccc(-c2nnc(NC(=O)c3ccc(S(=O)(=O)N4CCC(C)CC4)cc3)o2)cc1 then?
Result: 5.81 µM

Query: For O=C(Nc1nc(-c2ccncc2)cs1)c1cccc(S(=O)(=O)N2CCOCC2)c1 then?
Result: 65.9 µM

Query: For CC1CC(C)CN(S(=O)(=O)c2ccc(C(=O)Nc3nnc(C4=COCCO4)o3)cc2)C1 (stereo not given) then?
Result: 35.6 µM

Values were extracted from PubChem BioAssay AID720563.
